# key: entry, value: In vitro Activity Compared to Native Peptide (%) vs. Glucagon
Target: human GCG receptor (human, UniProt P47871 26-477)
Sequence (P47871 26-477): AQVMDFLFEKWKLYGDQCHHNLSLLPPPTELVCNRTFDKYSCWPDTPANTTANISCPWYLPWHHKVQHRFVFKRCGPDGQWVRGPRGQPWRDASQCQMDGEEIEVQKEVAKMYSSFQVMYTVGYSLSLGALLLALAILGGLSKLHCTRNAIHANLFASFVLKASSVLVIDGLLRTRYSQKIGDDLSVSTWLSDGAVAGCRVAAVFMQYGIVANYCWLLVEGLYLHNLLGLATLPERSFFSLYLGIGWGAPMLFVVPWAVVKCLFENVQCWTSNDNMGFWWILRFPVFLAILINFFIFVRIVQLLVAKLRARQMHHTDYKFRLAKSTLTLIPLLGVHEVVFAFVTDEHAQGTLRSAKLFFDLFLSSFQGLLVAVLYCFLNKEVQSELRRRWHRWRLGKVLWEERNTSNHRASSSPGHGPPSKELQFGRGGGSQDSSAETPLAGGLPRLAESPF
Assay: cell-based or functional assay
Positions of bridges follow the written chain, without caps; N, C: chain ends. Non-standard residues stand in square brackets, D forms with d. No end group written: not given here. *: point of attachment. Acetyl(2-(4-imidazolyl)) = O=C(Cc1c[nH]cn1)*; Aib = CC(C)(N)C(=O)O
READOUT LABEL: In vitro Activity Compared to Native Peptide (%) vs. Glucagon

# BINDER, ENDPOINT VALUE
measured = [
    ("[Acetyl(2-(4-imidazolyl))]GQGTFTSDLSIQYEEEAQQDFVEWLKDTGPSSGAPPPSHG [triple agonist of SEQ ID NO: 20]", "< 0.1%"),
    ("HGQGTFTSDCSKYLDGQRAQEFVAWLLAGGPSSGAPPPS [triple agonist of SEQ ID NO: 47]", "< 0.1%"),
    ("Y[Aib]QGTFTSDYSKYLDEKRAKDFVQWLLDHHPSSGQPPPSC (bridge 16-20) [triple agonist of SEQ ID NO: 76]", "47.6%"),
    ("Y[Aib]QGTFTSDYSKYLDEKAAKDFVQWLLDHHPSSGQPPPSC (bridge 16-20) [triple agonist of SEQ ID NO: 77]", "12.2%"),
    ("H[Aib]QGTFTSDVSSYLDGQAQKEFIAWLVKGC [triple agonist of SEQ ID NO: 2]", "< 0.1%"),
    ("{Acetyl(2-(4-imidazolyl))}-[Aib]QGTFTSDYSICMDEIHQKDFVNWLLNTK (bridge 15-19) [triple agonist of SEQ ID NO: 49]", "< 0.1%"),
    ("H[Aib]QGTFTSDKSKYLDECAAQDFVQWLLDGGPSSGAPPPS [triple agonist of SEQ ID NO: 41]", "< 0.1%"),
    ("H[Aib]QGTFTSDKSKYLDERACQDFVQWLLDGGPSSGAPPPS [triple agonist of SEQ ID NO: 40]", "< 0.1%"),
    ("Y[Aib]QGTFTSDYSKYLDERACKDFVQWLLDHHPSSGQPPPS (bridge 16-20) [triple agonist of SEQ ID NO: 71]", "12.7%"),
    ("H[Aib]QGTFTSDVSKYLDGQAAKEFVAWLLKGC [triple agonist of SEQ ID NO: 7]", "< 0.1%"),
    ("[Acetyl(2-(4-imidazolyl))]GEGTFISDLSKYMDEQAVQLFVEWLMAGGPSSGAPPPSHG [triple agonist of SEQ ID NO: 12]", "< 0.1%"),
    ("H[Aib]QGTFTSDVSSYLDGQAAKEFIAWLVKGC [triple agonist of SEQ ID NO: 1]", "< 0.1%"),
]
